Where do the numbers come from? From patent US12448389B2.

Measured Target: SMARCA4-HiBiT (Homo sapiens)
Construct: SMARCA4-HiBiT knock-in Hela monoclonal cell (CS3023226); host or cells: HeLa monoclonal knock-in line (CRISPR HiBiT knock-in at the endogenous locus, heterozygous)
Sequence (P51532 whole entry): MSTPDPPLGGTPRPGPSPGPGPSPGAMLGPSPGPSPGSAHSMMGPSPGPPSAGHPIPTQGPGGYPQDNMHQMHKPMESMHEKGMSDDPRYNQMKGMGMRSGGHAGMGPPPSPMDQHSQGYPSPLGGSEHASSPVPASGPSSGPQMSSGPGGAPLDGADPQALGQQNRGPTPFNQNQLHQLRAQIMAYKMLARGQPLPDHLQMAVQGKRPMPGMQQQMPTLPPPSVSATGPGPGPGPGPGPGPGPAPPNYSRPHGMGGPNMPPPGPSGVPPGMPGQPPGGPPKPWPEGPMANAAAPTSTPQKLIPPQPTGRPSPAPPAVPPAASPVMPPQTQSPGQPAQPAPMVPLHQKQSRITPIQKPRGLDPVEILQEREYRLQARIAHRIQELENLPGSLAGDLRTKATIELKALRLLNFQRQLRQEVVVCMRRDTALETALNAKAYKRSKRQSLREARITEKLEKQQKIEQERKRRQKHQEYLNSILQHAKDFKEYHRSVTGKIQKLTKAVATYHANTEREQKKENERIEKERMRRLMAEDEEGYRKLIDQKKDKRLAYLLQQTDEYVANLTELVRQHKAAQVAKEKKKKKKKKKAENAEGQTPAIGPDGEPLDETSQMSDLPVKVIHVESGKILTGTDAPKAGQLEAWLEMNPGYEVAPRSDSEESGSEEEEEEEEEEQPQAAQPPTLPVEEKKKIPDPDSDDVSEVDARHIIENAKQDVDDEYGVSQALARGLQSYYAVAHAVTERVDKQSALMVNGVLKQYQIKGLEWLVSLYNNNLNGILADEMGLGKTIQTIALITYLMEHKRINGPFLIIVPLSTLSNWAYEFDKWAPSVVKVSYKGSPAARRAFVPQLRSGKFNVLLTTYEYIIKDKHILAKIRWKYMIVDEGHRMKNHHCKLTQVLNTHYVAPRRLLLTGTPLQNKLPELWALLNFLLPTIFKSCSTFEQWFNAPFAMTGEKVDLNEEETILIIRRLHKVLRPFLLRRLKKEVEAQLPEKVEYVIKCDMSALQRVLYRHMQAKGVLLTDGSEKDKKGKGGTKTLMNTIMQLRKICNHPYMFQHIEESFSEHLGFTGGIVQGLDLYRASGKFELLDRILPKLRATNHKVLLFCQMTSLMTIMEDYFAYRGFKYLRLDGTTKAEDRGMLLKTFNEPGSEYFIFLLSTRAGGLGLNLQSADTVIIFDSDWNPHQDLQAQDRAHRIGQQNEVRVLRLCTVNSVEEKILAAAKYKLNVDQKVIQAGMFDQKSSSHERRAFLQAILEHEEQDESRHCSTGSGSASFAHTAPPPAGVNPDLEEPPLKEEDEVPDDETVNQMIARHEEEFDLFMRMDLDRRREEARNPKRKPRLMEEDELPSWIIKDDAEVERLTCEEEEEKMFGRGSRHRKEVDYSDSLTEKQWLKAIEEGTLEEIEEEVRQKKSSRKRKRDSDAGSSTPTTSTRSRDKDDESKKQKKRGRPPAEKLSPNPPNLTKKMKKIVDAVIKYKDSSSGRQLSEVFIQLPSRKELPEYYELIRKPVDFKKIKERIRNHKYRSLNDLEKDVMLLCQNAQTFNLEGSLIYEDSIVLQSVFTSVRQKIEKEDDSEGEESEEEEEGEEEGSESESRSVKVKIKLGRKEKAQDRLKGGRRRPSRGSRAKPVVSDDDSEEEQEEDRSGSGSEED
Measurement Notes: SMARCA4 HiBiT degradation assay in HeLa cells
Format: cell-based
Condition Summary: HeLa, 18 hours incubation, read-out: HeLa-HiBit-SM4 Dmax (%)
Result Type: Dmax

Consider the reported Dmax for these molecules:
Molecule	Observed
O=C1CCC(N2C(=O)c3ccc(N4CC[C@H](CN5CCN(C(=O)N6CCN7c8cc(-c9ccccc9O)nnc8NC[C@H]7C6)CC5)[C@@H](F)C4)cc3C2=O)C(=O)N1 (stereo partly shown)	50 to 75%
O=C1CCC(N2C(=O)c3ccc(N4CCN(CCN5CCO[C@H](CN6CCN7c8cc(-c9ccccc9O)nnc8NC[C@H]7C6)C5)CC4)cc3C2=O)C(=O)N1 (stereo partly shown)	50 to 75%
O=C1CCC(N2C(=O)c3ccc(Nc4ccc(N5CCC(N6CCN7c8cc(-c9ccccc9O)nnc8NC[C@H]7C6)CC5)cc4)cc3C2=O)C(=O)N1 (stereo partly shown)	75 to 85%
O=C1CCC(N2C(=O)c3cccc(N4CCC(OCCN5CCC(N6CCN7c8cc(-c9ccccc9O)nnc8NC[C@H]7C6)CC5)CC4)c3C2=O)C(=O)N1 (stereo partly shown)	50 to 75%

Requested read-out: Dmax. Entry: O=C1CCC(N2C(=O)c3ccc(N4CCC(CN[C@H]5C[C@@H](CN6CCN7c8cc(-c9ccccc9O)nnc8NC[C@H]7C6)C5)CC4)cc3C2=O)C(=O)N1 (stereo partly shown) > 85%

Next up: O=C1CCC(N2Cc3ccc(N4CCN(CC5CCN(C(=O)N6CCN7c8cc(-c9ccccc9O)nnc8NC[C@H]7C6)CC5)CC4)cc3C2=O)C(=O)N1 (stereo partly shown) > 85%

Next up: O=C1CCC(N2Cc3ccc(N4CCC(CN5CCC(OC(=O)N6CCN7c8cc(-c9ccccc9O)nnc8NC[C@H]7C6)CC5)CC4)cc3C2=O)C(=O)N1 (stereo partly shown) 75 to 85%

Next up: O=C1CCC(N2C(=O)c3cc(F)c(N4CCC(CN5CCC(CN6CCN7c8cc(-c9ccccc9O)nnc8NC[C@H]7C6)CC5)CC4)cc3C2=O)C(=O)N1 (stereo partly shown) 75 to 85%

Next up: CC1CN(CC2CCN(C(=O)N3CCN4c5cc(-c6ccccc6O)nnc5NC[C@H]4C3)CC2)CCN1c1ccc2c(c1)C(=O)N(C1CCC(=O)NC1=O)C2=O (stereo partly shown) 75 to 85%

Next up: O=C1CCC(N2C(=O)c3ccc(N4CCC(N5C[C@@H]6[C@@H](CN7CCN8c9cc(-c%10ccccc%10O)nnc9NC[C@H]8C7)[C@@H]6C5)CC4)cc3C2=O)C(=O)N1 (stereo partly shown) 50 to 75%

Next up: O=C1CCC(N2C(=O)c3ccc(N4CCN(C(=O)OCCN5CCC(N6CCN7c8cc(-c9ccccc9O)nnc8NC[C@H]7C6)CC5)CC4)cc3C2=O)C(=O)N1 (stereo partly shown) 75 to 85%

Next up: CC1CN(CC2CCN(c3ccc4c(c3)C(=O)N(C3CCC(=O)NC3=O)C4)CC2)CCN1C(=O)N1CCN2c3cc(-c4ccccc4O)nnc3NC[C@H]2C1 (stereo partly shown) 75 to 85%

Next up: O=C1CCC(N2C(=O)c3ccc(N4CC5(CC(N6C[C@@H]7[C@@H](CN8CCN9c%10cc(-c%11ccccc%11O)nnc%10NC[C@H]9C8)[C@@H]7C6)C5)C4)cc3C2=O)C(=O)N1 (stereo partly shown) 75 to 85%
